Numbers sourced from patent US12180194B2.

# Test system: Bscl2-GFP
# methodDescription: ToxTracker genotoxicity assay, Bscl2-GFP reporter induction
# conditions: GFP induction vs vehicle at 50% cytotoxicity; 3 h exposure with S9, 24 h recovery
outcomeMeasure: Genotoxicity test, With S9 rat liver extract, Bscl 2, 50 (fold)
Give the number; fold is assumed, so skip it.

In: I am curious: what Genotoxicity test, With S9 rat liver extract, Bscl 2, 50 value has been reported for CC1CN1C1CCCCC1OC(=O)NCCCCCCn1c(=O)n(CCCCCCNC(=O)OC2CCCCC2N2CC2C)c(=O)n(CCCCCCNC(=O)OC2CCCCC2N2CC2C)c1=O (stereo not shown) [Ex. 19] ?
Out: 1.2

In: Quick one: CCCCOCC(CN1CC1C)OC(=O)NCCCCCCNC(=O)OC(COCCCC)CN1CC1C (stereo not shown) [Comp. Ex. 10, reference compound]
Out: 1.5

In: Now try CCCCOCC(CN1CC1C)OC(=O)NC(C)(C)c1cccc(C(C)(C)NC(=O)OC(COCCCC)CN2CC2C)c1 (stereo not shown) [Ex. 11] .
Out: 1.3

In: Now the same for CC(CN1CC1C)OC(=O)NCC1(C)CC(NC(=O)OC(C)CN2CC2C)CC(C)(C)C1 (stereo not shown) [Comp. Ex. 7, reference compound]
Out: 1.7

In: Moving on to the next compound: CC(CN1CC1C)OC(=O)NCCCCCCNC(=O)OC(C)CN1CC1C (stereo not shown) [Comp. Ex. 6, reference compound]
Out: 2.3

In: Please do the same for CCCCCCCCCC(=O)OCC(CN1CC1C)OC(=O)NC1CCC(CC2CCC(NC(=O)OC(COC(=O)CCCCCCCCC)CN3CC3C)CC2)CC1 (stereo not shown) [Ex. 23] as well.
Out: 1.1

In: Subsequent entry: CCCCOCC(CN1CC1C)OC(=O)NC1CCC(CC2CCC(NC(=O)OC(COCCCC)CN3CC3C)CC2)CC1 (stereo not shown) [Ex. 12]
Out: 1.0
